Subject of test: Cytochrome P450 2D6 (Homo sapiens, UniProt P10635)
Sequence (P10635 whole entry): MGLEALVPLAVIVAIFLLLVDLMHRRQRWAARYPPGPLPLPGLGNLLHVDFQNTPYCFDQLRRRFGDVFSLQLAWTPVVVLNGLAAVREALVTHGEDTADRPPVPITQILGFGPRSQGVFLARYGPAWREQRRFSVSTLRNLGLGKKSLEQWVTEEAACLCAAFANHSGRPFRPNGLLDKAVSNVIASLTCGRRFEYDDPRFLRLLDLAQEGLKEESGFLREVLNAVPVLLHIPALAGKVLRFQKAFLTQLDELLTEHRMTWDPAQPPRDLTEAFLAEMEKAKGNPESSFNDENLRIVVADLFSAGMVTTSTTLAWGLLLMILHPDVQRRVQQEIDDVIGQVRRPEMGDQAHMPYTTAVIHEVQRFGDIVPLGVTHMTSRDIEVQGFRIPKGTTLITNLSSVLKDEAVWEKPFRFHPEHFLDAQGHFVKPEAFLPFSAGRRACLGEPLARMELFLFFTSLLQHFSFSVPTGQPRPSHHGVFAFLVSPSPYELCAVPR
Experiment notes: Inhibition of CYP2D6 at 10 uM
Assay type: ADME
Experimental endpoint: inhibition (INH)

Here are 4 compounds together with their reported answers.
smi=O=S(=O)(c1ccc2ccccc2c1)N1CC=C(c2ccccc2)CC1 experimental_endpoint="inhibition (INH)" observed_result="Not Active"
smi=N#C/C(=C\c1ccc2c(c1)CCO2)S(=O)(=O)c1ccc(Cl)cc1Cl experimental_endpoint="inhibition (INH)" observed_result="Not Active"
smi=Fc1cccc(Cl)c1CSc1nnc(-c2ccco2)n1-c1ccc(OCc2ccccc2)cc1 experimental_endpoint="inhibition (INH)" observed_result="Not Active"
smi=O=C(CSc1nnc(-c2ccccc2)c(-c2ccccc2)n1)N1CCc2ccccc21 experimental_endpoint="inhibition (INH)" observed_result=Active

Request: State, in one line, measured inhibition (INH) of "O=S(=O)(c1ccc2ccccc2c1)N1CCCN(Cc2c(F)cccc2Cl)CC1"
Response: Not Active

Request: Specify reported inhibition (INH) for the compound shown: "O=S(=O)(Nc1cccc(CCc2ccccn2)c1)c1cc(Cl)ccc1Cl"
Response: Active

Request: Name the recorded inhibition (INH) of the item "CN(Cc1ccccc1)S(=O)(=O)c1ccc(Oc2cccc(Cl)c2C#N)cc1" in your answer.
Response: Not Active

Request: Look up and report measured inhibition (INH) for this entry: "O=S(=O)(c1ccc2ccccc2c1)N1CCN(c2ncc(C(F)(F)F)cc2Cl)CC1"
Response: Not Active
